Assign EC50 to each entry below.
System: L929 mice fibroblast cells
test summary: Cytotoxicity (residual protein content of the cells)
Type: cell-based
particulars: Mus musculus; concentration at which 50% of the L929 cells are damaged; incubation 48 h
Express the result in µM but write the number alone.

Prompt line: Query: EC50; subject: CCC#COCCCCOC#CCC
Response line: 2000

Prompt line: State the recorded EC50 for this entry: C#CCOCCCCOCC#C
Response line: 3000

###

System: L929 mice fibroblast cells
test summary: Cytotoxicity (residual protein content of the cells)
Assay type: cell-based
particulars: toxicological concentration limit: reduction of protein content of L929 cells by more than 30% relative to negative control; incubation 48 h
measurement type: Concentration limit

Prompt line: Looking for the measured Concentration limit of C=CC(=O)OCCCCOC(=O)C=C [1,4-butanediol diacrylate, reference compound] , can you help?
Response line: <160 µM

Prompt line: What does the record list as Concentration limit for CCC#COCCCCOC#CCC ?
Response line: >1100 µM

Prompt line: Please look up its Concentration limit: C=C(C)C(=O)OCCCCOC(=O)C(=C)C [1,4-butanediol dimethacrylate, reference compound]
Response line: <160 µM

Prompt line: For C#CCOCCCCOCC#C , what is its reported Concentration limit?
Response line: >1600 µM
